# credit: paper PMC12136788

Target: T1, UNK ZnF1-3 (human, UniProt Q9C0B0 31-174)
T1 sequence: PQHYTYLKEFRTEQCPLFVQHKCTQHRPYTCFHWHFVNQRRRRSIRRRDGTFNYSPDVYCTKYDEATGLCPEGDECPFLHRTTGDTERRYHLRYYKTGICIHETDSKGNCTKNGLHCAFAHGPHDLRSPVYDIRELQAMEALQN
Test: nsRBNS (natural sequence RNA bind-n-seq); RBNS binding buffer (assumed for nsRBNS): 25 mM Tris pH 7.5, 150 mM KCl, 3 mM MgCl2, 0.01% Triton X-100, 500 ug/ml BSA, 20 U/ml SUPERase-In, 4 C; UNK is unkempt and MSI1 is Musashi-1; names of the RNAs are library labels; protein concentration not given here; high values mean tight binding
Over roughly 24,000 sequences, “enrichment r” has its median near 0.99; the highest 2% begin near 3.7. The entries come from a sample that favours the highest values as a whole.
Label scheme for binding signal: lower than 3 enrichment R is label 0, 3 enrichment R and above is label 1.

BINDER	CATEGORY
23644147_23644267_867_3pUTR_ENSMUSG00000028986_ENSMUST00000030841|mouse|control|control (ssRNA) RNA: GGGAGUUCUACAGUCCGACGAUCUUGAAUAAGUGGUUCAGCUUGUACUGUUUUACUUAGGAAAUUCUUCGAUAUAAGAGGAAACCUGACUUUAGCAAGGAUAUCAACCAUGAAUGGCUGGCGGUUAGGCUCAUCAUAUUUCAACAACAGAGGAUUGAGCAUCA	label 0
chr10:112657927:112657928:+_ENSG00000150593_ENST00000280154|hu_mus|FALSE|FALSE (ssRNA) RNA: GGGAGUUCUACAGUCCGACGAUCAAAAAAAAAAAAAAAAAAAAAAACAAUAACAAAAACAAAAGGAAAAGAAAACCUGUACUGACAACUCUUACAGUUGAGAUCUGUUCUUGGUAACACCUAAGACUGUAAGAGUUGCUGUGCCAACAGAGGAUUGAGCAUCA	label 1
chr19:8913615:8913616:-_ENSMUSG00000071658_ENSMUST00000096259|mus_hu|mus_mus_mus_hu_False|98_108 (ssRNA) RNA: GGGAGUUCUACAGUCCGACGAUCAGGGGGGCACCAAACCCUGCCUCAAAUGGGUGCCCCACCCAGUAGGGAGUUGCAGCUGAAAGUAUCUGAUGCAGAAGCAGUGACUAUACGAAAGGAGGCCCCUGGGGAGGGCCAGGCCAGCAACAGAGGAUUGAGCAUCA	label 0
chr10:117127018:117127019:-_ENSMUSG00000020184_ENSMUST00000020408|mus_hu|FALSE|FALSE (ssRNA) RNA: GGGAGUUCUACAGUCCGACGAUCAACAGAGCAAGACUCGGUCUCAAAAAAAAUAAUAAGUUACAUUUAAAUGUCAUAUACAUAUUUAAGAAAAAAAAAAACCAAGUACUUCUCAUUUAAGACAGAGUAGAAAUUAUUUAAAAUCAACAGAGGAUUGAGCAUCA	label 1
chr3:133545784:133545785:-_ENSG00000154917_ENST00000285208|hu_mus|motif|central (ssRNA) RNA: GGGAGUUCUACAGUCCGACGAUCGAGGAUGUGAGUGUGUGUAUGUGUGCGCGCGAAGGGUGUAUACACAAGUCUAUCUCGGUGUAUAAUUAUGUACACACAUAUAAAAACUAAACACGUGACGUUUCGAUUAUGCUCGUACAUCAACAGAGGAUUGAGCAUCA	label 0
chr8:81717444:81717445:+_ENSMUSG00000071064_ENSMUST00000098614|mus_mus|FALSE|FALSE (ssRNA) RNA: GGGAGUUCUACAGUCCGACGAUCUAAUGUACACAAACCUUGACAGUAUGAGCGUCUGAACAUAAUAUGAGGAGUUAAAAAAAAAGAAAGAAAGAAAGAAAGAAAGAAAGAGAGAGAGAAAGAAAAGAAAGGACAGGAGAGAGACAACAGAGGAUUGAGCAUCA	label 1
chr1:58468927:58468928:-_ENSMUSG00000026034_ENSMUST00000148330|mus_mus|mus_mus_mus_hu_False|58_78 (ssRNA) RNA: GGGAGUUCUACAGUCCGACGAUCAAUUACUGAAAAAGAUGUUCAUUACCUUAGCUAGGCCAUGUAUGAACCAAAUUAUCUAAAAAAAAUAAACAUGGCAAUAUAAAAAUGUUAAGAAUUUACAAAGCUGUACAAAAUAACUUACAACAGAGGAUUGAGCAUCA	label 1
chr1:66485654:66485655:+_ENSMUSG00000015222_ENSMUST00000024639|mus_mus|motif|central (ssRNA) RNA: GGGAGUUCUACAGUCCGACGAUCAAUUUUUUAUAUAAAAUUGUAACAAUUACUACAGUUGGGGGAUGAAAUUAUUUCUCGGUGGUUUGUAAAGAAUGAAUAUGACACCUGCUCAGAGCCCACUCCUGCCAAGAGCUCAUGCCUCAACAGAGGAUUGAGCAUCA	label 1
chr14:48151594:48151595:+_ENSMUSG00000037536_ENSMUST00000168833|mus_mus|FALSE|FALSE (ssRNA) RNA: GGGAGUUCUACAGUCCGACGAUCAUUGAAGUUUUUUUAAAAAAUUUUUAACCAGACAAAAGGAUGCACAACAUUUUAAUCUAUUAUAUGAUAUUGUCUUAUUCUGUGGUGAUUAUGUUUAGUCAGCUGUUCAUAAUAUACAAUCAACAGAGGAUUGAGCAUCA	label 1
